Each item that follows carries a reported growth.
# Test system: UO-31 renal
# assay-text: NCI-60 one-dose screen, 48 h (100 = growth as untreated, 0 = no growth, -100 = all killed)
# stated-conditions: 10 µM unless noted
# Description: Growth inhibition of the UO-31 human tumor cell line is measured as a screen for anti-cancer activity. Cells are grown in 96 well plates and exposed to the test compound for 48 hours. Compounds are tested at a single concentration, which is 10^-5 M for most compounds. The reported endpoint is percent growth (GI% or GIPRCNT), where numbers from 0 - 100% represent growth inhibition, and numbers from -100% - 0 represent cell death. For example, a value of 40 represents 60% growth inhibition. […]
Compounds without any hit were thinned out: in the full panel of roughly 83,000, 20% have a hit.
Number in %, nothing else.

• Nc1ccc(C(OC(=O)c2cc3ccccc3c(Cc3c(O)c(C(=O)OC(c4ccc(N)cc4)(c4ccc(N)cc4)c4ccc(N)cc4)cc4ccccc34)c2O)(c2ccc(N)cc2)c2ccc(N)cc2)cc1 = 29
• Fc1ccc(-c2ccnc3nc(-c4ccncc4)nn23)cc1 = 84.5
• Clc1cn2cc(-c3ccc(Cl)c(Cl)c3Cl)nc2s1 = 79.2
• Cc1cc(C)c2c(n1)sc1c(Nc3ccc(OCc4ccccc4)cc3)ncnc12 = 85.1
• CC(=O)OC1Oc2cc(C)c(C)cc2-c2oc(=O)c(-c3cc4ccccc4oc3=O)cc21 (centres undefined) = 96.2
• C=CCn1c(SCC(=O)Nc2ccc(C(=O)/C=C/c3ccc(Cl)cc3)cc2)nnc1-c1ccc(Cl)cc1 = 61.7

(Q) Fill in the recorded growth for this compound, with UO-31 renal as test system: CCCCNCCC(O)c1cc2ccc(C(F)(F)F)cc2c2cc(C(F)(F)F)ccc12 (centres undefined)
(A) -88.8

(Q) Fill in the recorded growth for this compound, with UO-31 renal as test system: `O=C(OCc1ccc2c(Br)cc(Br)c(O)c2n1)c1cc2ccccc2[nH]1`
(A) -100

(Q) Fill in the recorded growth for this compound, with UO-31 renal as test system: `CCCc1n(Cc2ccc3ccccc3n2)cc[n+]1Cc1ccc2ccccc2n1`
(A) 86.5
